The reported measurements were obtained from ChEMBL document CHEMBL1201862.

tested on: NCI-H23; assay: NCI tumour cell line growth inhibition, 48 h
Where a name gives a salt, the structure may show the parent alone. The source made the active and inactive calls. No stated cut-off is given here; in the data, active = GI50 up to about 1.1 µM and inactive = higher.
attribute_measured: GI50

>>> df
                                   compound  experimental_system           data_value
0  Cc1cccc2c1C(=O)[C@@](C)([C@]1(C)Nc3cccc(C)c3C1=O)N2              NCI-H23  > 100 µM (inactive)
1  S=C(S)NCC1CCC(CNC(=S)S)CC1 (stereo not given)              NCI-H23   44.5 µM (inactive)
2  N=C(N)NS(=O)(=O)c1ccc(/N=N/c2c(O)c(C(=O)O)cc3ccccc23)cc1              NCI-H23  > 100 µM (inactive)
3   CCN(CC)CCCNC(=O)c1ccc([N+](=O)[O-])cc1O              NCI-H23  > 100 µM (inactive)
4  O=C(Nc1cc(Cl)c(Cl)cc1Cl)C(=O)C(C(=O)c1ccc(Cl)c(Cl)c1)C1OC(=O)c2ccccc21 (stereo not given)              NCI-H23   > 10 µM (inactive)
5  CSCCC(NC(c1ccccc1)c1ccccc1)[PH](=O)O (stereo not given)              NCI-H23  > 100 µM (inactive)
6        Cn1c(=O)cc(NCc2ccc(Cl)cc2)[nH]c1=O              NCI-H23  > 100 µM (inactive)
7  O=c1[nH]c(=O)n(CCOc2ccc(Cl)cc2)cc1Nc1ccccc1              NCI-H23  > 100 µM (inactive)
8  CC(=O)N(O)CCCCCNC(=O)CCC(=O)N(O)CCCCCNC(=O)CCC(=O)N(O)CCCCCN [DEFEROXAMINE HYDROCHLORIDE]              NCI-H23   63.5 µM (inactive)
9  NC(CCOCCP(=O)(O)O)C(=O)O (stereo not given)              NCI-H23  > 100 µM (inactive)

* * *

test system: OVCAR-3; assay: NCI tumour cell line growth inhibition, 48 h
The source made the active and inactive calls. Rule as the data show it: active = GI50 up to about 1.1 µM and inactive = higher.
Overview of reported GI50 across a group of compounds:
attribute_measured: GI50

In [3]: df
Out[3]:
                                    compound           data_value
 0  C/C(N)=C/C(=O)c1[nH]c(C(=O)O)cc1C1CCN(Cc2ccccc2)C1=O (stereo unspecified)   20.6 µM (inactive)
 1  C=C(C#N)C1OCC2OC(C)(C)OC21 (stereo unspecified)   21.7 µM (inactive)
 2      Cc1ccc(/C=N/Nc2cc(C)c3cccc(C)c3n2)s1   8.02 µM (inactive)
 3  C#CCCOC(=O)CC1=C(C)/C(=C/c2ccc([S+](C)[O-])cc2)c2ccc(F)cc21 (stereo unspecified)   15.4 µM (inactive)
 4  O=c1[nH]c(=O)n(CCOc2ccc(Cl)cc2)cc1Nc1ccccc1   85.3 µM (inactive)
 5  O=C1NC(=O)C2(CCc3ccc(N(CCCl)CCCl)cc32)N1 (stereo unspecified)   18.4 µM (inactive)
 6                 N=S(=O)(c1ccccc1)c1ccccc1  > 100 µM (inactive)
 7    CSc1nc(C)cc(Nc2ccc(O)c(CN3CCOCC3)c2)n1  > 100 µM (inactive)
 8  COC(=O)CC1NC(=O)[C@@H]1C(C)O (stereo partly specified)  > 100 µM (inactive)
 9  O=c1[nH]nc(Nc2ccc(Cl)cc2)c2nnn(C3CCCCC3)c12   37.2 µM (inactive)
10  COc1ccc(-c2cc(=O)c3cc(C)c(C)c(C(=O)O)c3o2)cc1  > 100 µM (inactive)
